tested on: A498 renal; assay: NCI tumour cell line growth inhibition, 48 h
Measurement Label: TGI

> print(dat)
                                    molecule  measurement.target  measurement.label   reading
 1  CCOc1ccc2c(c1)[n+]([O-])c(-c1nc3ccccc3s1)c(N)[n+]2[O-]          A498 renal                TGI  > 100 µM
 2  Cc1cc(C)n(C2OC(CO)C(O)C(O)C2O)c(=S)c1C#N (stereo not given)          A498 renal                TGI  > 100 µM
 3            Cc1nc(-c2ccccc2)c(-c2ccccc2)s1          A498 renal                TGI   64.4 µM
 4  Cc1ccc2c(c1)CN(C(=O)CCC(=O)OCc1ccccc1)c1ccc(C)cc1CN2C(=O)CCC(=O)OCc1ccccc1          A498 renal                TGI  > 100 µM
 5  COc1cc2c3c(n(C)c(=O)c2cc1OC)-c1cc2c(cc1/C3=C\CNCCCN)OCO2          A498 renal                TGI   12.1 µM
 6  COC1=CC2(C=CC1=O)c1cc(OC)c(OC)cc1CCN2C(=O)c1ccccc1 (stereo not given)          A498 renal                TGI  > 100 µM
 7  COc1cccc(N2C(=O)[C@H]3CC(C)c4c([nH]c5ccccc45)[C@H]3C2=O)c1 (stereo not given in full)          A498 renal                TGI  > 100 µM
 8  NC(=S)Nc1ccc(S(=O)(=O)Nc2ccc(S(N)(=O)=O)cc2)cc1          A498 renal                TGI  > 100 µM
 9     O=C1/C(=C/c2ccc(O)cc2)CSc2ccc(Cl)cc21          A498 renal                TGI   28.4 µM
10  Cc1ccccc1N=Nc1ccc(N/N=C2/CCCNC2=O)c(C)c1          A498 renal                TGI  > 100 µM

###

test system: SF-268 CNS; assay: NCI tumour cell line growth inhibition, 48 h; in the data active means GI50 below about 0.43 µM; inactive means the rest
Possible outcomes: True for active, False for inactive

Compound	Measurement Target	Group Label
COc1cc2c3c(n(C)c(=O)c2cc1OC)-c1cc2c(cc1/C3=C\CNCCCN)OCO2	SF-268 CNS	False
Cc1ccc2[nH]c(C(=O)NN3C(=O)C(C)SC34CCCC(C)C4)c(-c3ccccc3)c2c1 (configuration not stated)	SF-268 CNS	False
CC(=O)O.[Au].c1ccc([PH+](c2ccccc2)c2ccccc2)cc1	SF-268 CNS	False
COc1ncc(-c2ccc3ncnc(Nc4cccc(Cl)c4)c3c2)cc1NS(=O)(=O)CCN1CCOCC1	SF-268 CNS	True
CC[C@H](C)[C@H]1O[C@]2(C=C[C@@H]1C)C[C@@H]1C[C@@H](C/C=C(\C)[C@@H](O[C@H]3C[C@H](OC)[C@@H](O[C@H]4C[C@H](OC)[C@@H](NC)[C@H](C)O4)[C@H](C)O3)[C@@H](C)/C=C/C=C3\CO[C@@H]4[C@H](O)C(C)=C[C@@H](C(=O)O1)[C@]34O)O2	SF-268 CNS	False
COC(=O)C12C3C4C1C1C2C3C41NC(=O)c1csc([C@@H](C[C@H](C(C)C)N(C)C(=O)[C@@H](NC(=O)[C@H]2CCCCN2C)C2CC2)OC(C)=O)n1 (some centres not stated)	SF-268 CNS	True
CC[CH2][Sn]([Cl])([Cl])[CH2]CC.Oc1ccccc1C=NCCN=Cc1ccccc1O	SF-268 CNS	False
O=C1/C(=C/c2ccc(O)cc2)CSc2ccc(Cl)cc21	SF-268 CNS	False
C/C=C1/C(=C/c2[nH]c(/C=c3\[nH]/c(=C/C4=NC(=O)C(CC)=C4C)c(C)c3CCC(=O)O)c(CCC(=O)O)c2C)NC(=O)C1C (configuration not stated)	SF-268 CNS	False
Cn1c2ccccc2c2c3[nH]c(=O)[nH]c(=O)c3c3c4ccccc4n(C)c3c21	SF-268 CNS	False
NCCCn1c2c(c3ccc([N+](=O)[O-])cc3c1=O)C(=O)c1cc(Br)ccc1-2	SF-268 CNS	True
COc1cc(/C=C2\CCCC3=C2NC(C)=NC3c2cc(OC)c(OC)c(OC)c2)cc(OC)c1OC (configuration not stated)	SF-268 CNS	False

From: PubChem BioAssay (NCI)
